# Test system: wheat germ agglutinin (Triticum aestivum), Alexa647-labelled
# PROTOCOL_DESCRIPTION: wheat germ agglutinin binders on compound microarrays, profiling panel, artefact control for SMM control-protein annotation, biochemical, small-molecule microarray, 635/667 nm fluorescence (AID 1140);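 note: score merges 667 nm feature emission with signal to noise over triplicate slides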
# STATED_CONDITIONS: WGA-A647 binding, 635 nm fluorescence, higher = more signal
The reader will find reported composite z-score values listed item by item below.
In your answer, state the number alone without any accompanying words.

**Query** Report measured composite z-score; entry is C[N+](C)(C)CCCCCCNC(=O)[C@@H]1C[C@@H]2C(=O)N[C@@H](Cc3ccccc3)C(=O)N2[C@@H]1c1cccc(OCCO)c1
**Result** 0.659

Then there is this molecule:
**Query** Report measured composite z-score; entry is CN1C(=O)C2C=CC(C(O)C3CC=CCC3)N(N(c3ccccc3)c3ccccc3)C2C1=O (configuration not stated)
**Result** 0.259

----------
# PROTOCOL_DESCRIPTION: basal S. cerevisiae growth modulation, no modifier, primary screen, OD600, strain BY4716, 24 h, basal condition (AID 1173)
# STATED_CONDITIONS: OD600, 24 h, higher = more signal, called active from +8 up or from −8 down
The source made the active and inactive calls.
The reader will find reported z-score values listed item by item below.

# count of solved cases: 6
**Query** Report measured z-score; entry is CC(C)CNC(=O)[C@@]1(Cc2ccccc2I)c2ccccc2C(=O)N(C2CCCCC2)[C@H]1c1ccc(CO)cc1
**Result** 0.408 (inactive)

**Query** Report measured z-score; entry is [N-]=[N+]=Nc1ccccc1[C@H]1OC(c2ccc(OCCCO)cc2)=N[C@@]1(CCS(=O)(=O)c1ccccc1)C(N)=O
**Result** -1.06 (inactive)

**Query** Report measured z-score; entry is O=C1C2C=CC(C(O)Cc3ccccc3)N(n3cnnc3)C2C(=O)N1Cc1ccccc1 (configuration not stated)
**Result** 0.341 (inactive)

**Query** Report measured z-score; entry is C=CCOC(=O)[C@H]1[C@@H]2C(=O)O[C@@H](c3ccccc3)[C@@H](c3ccccc3)N2[C@@H](c2ccc(OCCOC(=O)[C@H]3C[C@H]4C(=O)N[C@@H](CCCCNC(C)=O)C(=O)N4[C@H]3c3ccc(O)cc3)cc2)[C@]12C(=O)Nc1ccc(I)cc12
**Result** -0.371 (inactive)

**Query** Report measured z-score; entry is COC(=O)[C@@]1(Cc2ccccc2)[C@H]2c3cc(C(=O)N(C)C)n(Cc4ccsc4Br)c3C[C@H]2CN1C(=O)c1ccccc1
**Result** 1.92 (inactive)

**Query** Report measured z-score; entry is CN1C=C(C(=O)OCCS(C)(=O)=O)C(C(=O)OCCS(C)(=O)=O)=CC(c2ccc(CO)cc2)=CC1C1CC1 (configuration not stated)
**Result** -1.68 (inactive)

Then there is this molecule:
**Query** Report measured z-score; entry is CCCC=C(CCC)[C@@H](NC(=O)c1cccs1)c1ccc(C(F)(F)F)cc1
**Result** 0.872 (inactive)

----------
# PROTOCOL_DESCRIPTION: HepG2 cell viability effects, profiling panel, calcein-AM fluorescence, 48 h, basal (AID 1164); note: test concentration not given here
# STATED_CONDITIONS: higher = more signal
Outcome: true for z-score of at least -0.3; false for anything lower.

**Query** Threshold query (z-score >= -0.3) on COc1ccc(/C=C/C=O)cc1
**Result** true

**Query** Threshold query (z-score >= -0.3) on C=C[C@H](OC)[C@@H](OC(=O)Nc1ccc(OC)cc1)c1ccc(O)c(F)c1
**Result** false

Continuing:
**Query** Threshold query (z-score >= -0.3) on NC(=O)N1C(=O)C2C(C1=O)C1C=C(c3ccc(CO)cc3)C2C(c2cccs2)N1Cc1cccc(OC(F)(F)F)c1 (stereo unspecified)
**Result** true

**Query** Threshold query (z-score >= -0.3) on [N-]=[N+]=Nc1ccccc1[C@H]1OC(c2ccc(OCCCO)cc2)=N[C@@]1(CCS(=O)(=O)c1ccccc1)C(N)=O
**Result** true
